I'd be grateful if you could share measured Relative activity, KU812-IL5 production by reduced IL33 for these entries.
TARGET_OF_ASSAY: T1, ST2 on the effector cells (KU812, KU812/NF-κB-1#, HUVEC, HMC-1) (human, UniProt Q01638 19-556)
T1 sequence (looked up): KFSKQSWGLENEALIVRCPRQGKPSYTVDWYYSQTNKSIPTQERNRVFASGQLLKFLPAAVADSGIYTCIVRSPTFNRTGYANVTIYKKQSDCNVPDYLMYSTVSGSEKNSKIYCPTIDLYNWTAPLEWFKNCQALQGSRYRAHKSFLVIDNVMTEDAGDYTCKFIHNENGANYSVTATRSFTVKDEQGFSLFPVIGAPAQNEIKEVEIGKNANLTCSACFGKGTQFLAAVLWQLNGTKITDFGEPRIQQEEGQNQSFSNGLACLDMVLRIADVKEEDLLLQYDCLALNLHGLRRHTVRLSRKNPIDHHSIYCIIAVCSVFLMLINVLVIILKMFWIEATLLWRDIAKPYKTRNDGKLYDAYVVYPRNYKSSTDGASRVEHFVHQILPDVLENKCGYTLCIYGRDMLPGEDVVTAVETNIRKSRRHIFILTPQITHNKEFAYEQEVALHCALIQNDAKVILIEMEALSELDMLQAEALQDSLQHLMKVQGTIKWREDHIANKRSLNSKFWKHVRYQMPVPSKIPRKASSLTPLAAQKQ
ASSAY_PROTOCOL: cell-based or functional assay

## Input Give the reported Relative activity, KU812-IL5 production by reduced IL33 for this binder. 5888-116-H0L1 (antibody, human IgG4 S228P, kappa, V domains shown, Humanized antibody) VH: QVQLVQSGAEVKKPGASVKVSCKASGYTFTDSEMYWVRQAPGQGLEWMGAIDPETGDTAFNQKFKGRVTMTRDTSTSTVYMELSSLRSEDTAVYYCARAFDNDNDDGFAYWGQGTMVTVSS VL: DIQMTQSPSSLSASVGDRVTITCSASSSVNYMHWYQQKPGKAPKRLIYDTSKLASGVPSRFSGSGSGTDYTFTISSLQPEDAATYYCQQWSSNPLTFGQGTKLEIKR
## Output 1180%

## Input Read off the recorded Relative activity, KU812-IL5 production by reduced IL33 for 5888-153-H3L1 (antibody, human IgG4 S228P, kappa, V domains shown, Humanized antibody) VH: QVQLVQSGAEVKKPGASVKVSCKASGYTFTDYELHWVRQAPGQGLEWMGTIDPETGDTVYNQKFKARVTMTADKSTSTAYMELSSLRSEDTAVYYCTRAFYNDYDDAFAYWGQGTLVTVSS VL: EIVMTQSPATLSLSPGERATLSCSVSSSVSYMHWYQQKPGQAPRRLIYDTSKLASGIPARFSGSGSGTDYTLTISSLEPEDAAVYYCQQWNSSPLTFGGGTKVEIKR
## Output 554%
